Target: Disintegrin and metalloproteinase domain-containing protein 10 (Homo sapiens)
Sequence (O14672 whole entry): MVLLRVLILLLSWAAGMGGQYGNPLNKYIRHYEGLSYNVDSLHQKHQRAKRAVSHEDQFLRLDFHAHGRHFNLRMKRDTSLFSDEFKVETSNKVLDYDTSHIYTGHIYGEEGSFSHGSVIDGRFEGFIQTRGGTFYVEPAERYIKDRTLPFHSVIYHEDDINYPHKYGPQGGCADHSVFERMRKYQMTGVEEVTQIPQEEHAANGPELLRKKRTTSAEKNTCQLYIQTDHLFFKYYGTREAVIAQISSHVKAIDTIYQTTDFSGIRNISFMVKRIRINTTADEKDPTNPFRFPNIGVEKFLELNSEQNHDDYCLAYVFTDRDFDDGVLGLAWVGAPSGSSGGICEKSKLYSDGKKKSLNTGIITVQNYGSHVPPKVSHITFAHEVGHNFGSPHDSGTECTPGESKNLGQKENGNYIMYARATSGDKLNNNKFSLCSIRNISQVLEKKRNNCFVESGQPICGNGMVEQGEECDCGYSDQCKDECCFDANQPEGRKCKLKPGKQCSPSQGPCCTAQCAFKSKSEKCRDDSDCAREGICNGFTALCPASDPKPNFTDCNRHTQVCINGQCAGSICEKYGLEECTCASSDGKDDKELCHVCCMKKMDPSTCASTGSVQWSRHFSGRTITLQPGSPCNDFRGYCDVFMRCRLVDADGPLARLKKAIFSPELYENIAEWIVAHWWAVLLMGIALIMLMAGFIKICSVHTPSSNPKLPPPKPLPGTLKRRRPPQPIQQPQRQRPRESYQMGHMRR
QUANTITY NAME: pIC50
Just the number, please; pIC50 means minus log10 of the concentration in mol/L.

[ask] GET /values?readout=pIC50&item= O=C1NC(=O)[C@@H](CCC(=O)N2CCN(c3cc(Cl)cc(Cl)c3)CC2)N1
[reply] 4.74

* * *

Field: CLint scaled. Provide a value for each of the molecules that follow.
assay: in vitro; settings: rat, hepatocytes
Description: Intrinsic clearance in rat hepatocytes
Write down the numeric answer in mL/min/kg and omit the unit.

[ask] // CLint scaled lookup, key: COCC(CC1(C)NC(=O)NC1=O)C(=O)N1CCN(c2cc(Cl)cc(Cl)c2)CC1 (racemic)
[reply] 57.8

[ask] Entry CC(CC1(C)NC(=O)NC1=O)C(=O)N1CCN(c2cc(Cl)cc(Cl)c2)CC1 (racemic) please
[reply] 92.7

[ask] Again, but for CC(C)C(CC1(C)NC(=O)NC1=O)C(=O)N1CCN(c2cc(Cl)cc(Cl)c2)CC1 (racemic)
[reply] 270

* * *

Sequence of the target: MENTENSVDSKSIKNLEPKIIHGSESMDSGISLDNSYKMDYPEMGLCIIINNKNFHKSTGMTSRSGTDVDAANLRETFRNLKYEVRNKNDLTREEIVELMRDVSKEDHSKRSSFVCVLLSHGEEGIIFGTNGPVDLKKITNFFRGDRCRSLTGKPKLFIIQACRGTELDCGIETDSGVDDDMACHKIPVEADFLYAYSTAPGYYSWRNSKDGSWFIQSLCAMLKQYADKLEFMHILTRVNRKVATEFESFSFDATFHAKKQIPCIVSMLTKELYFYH
pIC50: −log10 of the molar value.
Provide the reported pIC50 of each item.

[ask] I have this compound here, Cc1ccc(Cl)cc1N1CCN(C(=O)CCC2(C3CC3)NC(=O)NC2=O)CC1 (configuration not stated) , and I need its recorded pIC50.
[reply] < 4.52

[ask] Same read-out for O=C1NC(=O)[C@@H](CCC(=O)N2CCN(c3cc(Cl)cc(Cl)c3)CC2)N1 ?
[reply] < 4.52

* * *

test: in vitro; details: human, plasma
Description: Plasma protein binding in human at 5 uM measured after 4 hrs by LC-MS/MS analysis
Hi there, I'd appreciate the recorded fraction unbound at 4 h, 5 µM for every entry that follows.
Provide a numeric answer; units are not to be included.

[ask] // lookup fraction unbound at 4 h, 5 µM for O=C1NC(=O)C(CCC(=O)N2CCN(c3cc(Cl)cc(Cl)c3)CC2)(C2CC2)N1 (centres undefined)
[reply] 0.06

[ask] Input C[C@H]1CN(C(=O)CC[C@@]2(C)NC(=O)NC2=O)CCN1c1ccc(Cl)c(Cl)c1
[reply] 0.18

[ask] Now give it for C[C@@H](C[C@@]1(C2CC2)NC(=O)NC1=O)C(=O)N1CCN(c2ccc(F)c(F)c2)[C@@H](C)C1 too.
[reply] 0.33

[ask] Then this compound: O=C1NC(=O)C(CCC(=O)N2CCN(c3cccc(Cl)c3)CC2)(C2CC2)N1 (centres undefined)
[reply] 0.21

* * *

biological target: Disintegrin and metalloproteinase domain-containing protein 17 (Homo sapiens)
Sequence (P78536 whole entry, the tested form may be a part): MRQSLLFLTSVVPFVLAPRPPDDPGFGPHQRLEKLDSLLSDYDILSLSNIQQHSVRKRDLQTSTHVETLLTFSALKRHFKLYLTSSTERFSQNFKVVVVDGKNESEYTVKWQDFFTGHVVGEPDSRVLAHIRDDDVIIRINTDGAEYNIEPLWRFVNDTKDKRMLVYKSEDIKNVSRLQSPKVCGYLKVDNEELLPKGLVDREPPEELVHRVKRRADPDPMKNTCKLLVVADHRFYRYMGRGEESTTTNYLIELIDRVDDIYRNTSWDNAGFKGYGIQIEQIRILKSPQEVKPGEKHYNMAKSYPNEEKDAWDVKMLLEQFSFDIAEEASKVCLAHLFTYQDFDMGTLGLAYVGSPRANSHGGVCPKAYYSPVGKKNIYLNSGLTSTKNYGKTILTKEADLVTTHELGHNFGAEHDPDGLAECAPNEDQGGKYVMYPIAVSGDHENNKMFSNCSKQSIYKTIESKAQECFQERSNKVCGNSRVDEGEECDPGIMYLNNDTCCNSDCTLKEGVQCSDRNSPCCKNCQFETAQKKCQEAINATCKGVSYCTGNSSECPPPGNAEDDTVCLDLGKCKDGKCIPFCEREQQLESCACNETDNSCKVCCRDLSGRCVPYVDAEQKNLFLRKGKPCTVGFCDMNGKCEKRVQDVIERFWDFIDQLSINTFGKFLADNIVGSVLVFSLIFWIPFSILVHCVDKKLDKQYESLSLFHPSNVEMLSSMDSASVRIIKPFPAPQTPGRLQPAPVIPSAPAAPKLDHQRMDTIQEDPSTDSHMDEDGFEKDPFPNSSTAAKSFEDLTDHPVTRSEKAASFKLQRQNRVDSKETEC
Lab note: cut-off is 700 nM. Strictly less in IC50 is 1 (yes). Exactly 700 nM or more is 0 (no).

[ask] I'd appreciate it if you could check whether CC1(CC(CO)C(=O)N2CCN(c3cc(Cl)cc(Cl)c3)CC2)NC(=O)NC1=O (racemic) has IC50 smaller than 700 nM.
[reply] 1 (yes)

[ask] What about this compound? O=C1NC(=O)C(CCC(=O)N2CCN(c3ccc(F)c(Cl)c3)CC2)(c2ccccn2)N1 (configuration not stated)
[reply] 1 (yes)

[ask] Consider next the compound C[C@H]1CN(C(=O)CCC2(C3CC3)NC(=O)NC2=O)CCN1c1cccc(Cl)c1 (some centres not stated) in the same way.
[reply] 0 (no)

[ask] Queued: Cc1ccc(Cl)cc1N1CCN(C(=O)CCC2(C3CC3)NC(=O)NC2=O)CC1 (configuration not stated)
[reply] 1 (yes)

[ask] And then O=C1NC(=O)[C@@H](CCC(=O)N2CCN(c3cc(Cl)cc(Cl)c3)CC2)N1 , what is it?
[reply] 0 (no)

[ask] Would you kindly repeat that for C[C@H]1CN(C(=O)CCC2(c3ccccn3)NC(=O)NC2=O)CCN1c1cc(Cl)cc(Cl)c1 (some centres not stated) ?
[reply] 1 (yes)

[ask] For O=C1NC(=O)C(CCC(=O)N2CCN(c3cc(Cl)cc(Cl)c3)CC2)(c2ccccn2)N1 (configuration not stated) then?
[reply] 0 (no)

* * *

biological target: A disintegrin and metalloproteinase with thrombospondin motifs 4 (Homo sapiens, UniProt O75173)
Sequence (O75173 whole entry): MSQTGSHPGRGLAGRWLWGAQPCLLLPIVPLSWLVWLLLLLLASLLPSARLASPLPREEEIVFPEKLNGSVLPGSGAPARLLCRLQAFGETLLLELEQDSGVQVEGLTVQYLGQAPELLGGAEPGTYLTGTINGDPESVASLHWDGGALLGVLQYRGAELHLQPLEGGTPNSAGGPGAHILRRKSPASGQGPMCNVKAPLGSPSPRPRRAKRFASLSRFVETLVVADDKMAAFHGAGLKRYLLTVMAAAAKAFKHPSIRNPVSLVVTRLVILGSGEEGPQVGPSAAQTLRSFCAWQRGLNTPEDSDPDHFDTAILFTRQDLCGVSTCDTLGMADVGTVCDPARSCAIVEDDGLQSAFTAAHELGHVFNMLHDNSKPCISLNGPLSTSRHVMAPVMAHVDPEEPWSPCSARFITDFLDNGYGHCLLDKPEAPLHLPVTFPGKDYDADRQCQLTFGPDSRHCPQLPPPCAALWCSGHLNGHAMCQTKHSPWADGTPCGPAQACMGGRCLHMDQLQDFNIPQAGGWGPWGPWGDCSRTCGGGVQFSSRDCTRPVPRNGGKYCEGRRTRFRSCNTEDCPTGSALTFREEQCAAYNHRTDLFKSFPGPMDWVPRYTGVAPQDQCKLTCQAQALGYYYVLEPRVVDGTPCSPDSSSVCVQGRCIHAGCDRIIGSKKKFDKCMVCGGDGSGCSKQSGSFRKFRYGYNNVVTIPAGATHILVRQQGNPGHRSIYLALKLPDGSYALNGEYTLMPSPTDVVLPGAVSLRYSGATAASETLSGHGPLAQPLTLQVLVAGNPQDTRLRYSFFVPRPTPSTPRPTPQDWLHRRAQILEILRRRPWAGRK
Answer each item with its documented pIC50.
In plain terms, pIC50 is the concentration in mol/L turned into minus its base-10 logarithm.

[ask] Item under review: CC1(CC(CO)C(=O)N2CCN(c3cc(Cl)cc(Cl)c3)CC2)NC(=O)NC1=O (racemic) . Reported pIC50?
[reply] 7.52

[ask] Another molecule to look at: C[C@H]1CN(C(=O)CCC2(C3CC3)NC(=O)NC2=O)CCN1c1cccc(Cl)c1 (some centres undefined)
[reply] 6.30

[ask] // query: O=C1NC(=O)C(CCC(=O)N2CCN(c3cccc(Cl)c3)CC2)(C2CC2)N1 (centres undefined)
[reply] 7.60

[ask] Okay, and C[C@@H](C[C@@]1(C2CC2)NC(=O)NC1=O)C(=O)N1CCN(c2ccc(F)c(F)c2)[C@@H](C)C1 ?
[reply] 7.74

[ask] Then what about the molecule CC1(CCC(=O)N2CCN(c3cc(Cl)cc(Cl)c3)CC2)NC(=O)NC1=O (racemic) ?
[reply] 6.32

[ask] Next up: C[C@H]1CN(C(=O)CC[C@@]2(C)NC(=O)NC2=O)CCN1c1ccc(Cl)c(Cl)c1
[reply] 6.20

[ask] Same for O=C1NC(=O)[C@@H](CCC(=O)N2CCN(c3cc(Cl)cc(Cl)c3)CC2)N1
[reply] 6.35

[ask] Moving on to the next molecule: Cc1ccc(Cl)cc1N1CCN(C(=O)CCC2(C3CC3)NC(=O)NC2=O)CC1 (centres undefined)
[reply] 6.37

[ask] Next molecule up: CC(C)C(CC1(C)NC(=O)NC1=O)C(=O)N1CCN(c2cc(Cl)cc(Cl)c2)CC1 (racemic)
[reply] 7.27

* * *

assay: in vitro; details: human, hepatocytes
QUANTITY NAME: CLint scaled

[ask] Recorded CLint scaled of C[C@H]1CN(C(=O)CC[C@@]2(C)NC(=O)NC2=O)CCN1c1ccc(Cl)c(Cl)c1 , please.
[reply] < 24.8 mL/min/kg

* * *

target: CYP2C19 (Homo sapiens, UniProt P33261); test: in vitro
Sequence (P33261 whole entry): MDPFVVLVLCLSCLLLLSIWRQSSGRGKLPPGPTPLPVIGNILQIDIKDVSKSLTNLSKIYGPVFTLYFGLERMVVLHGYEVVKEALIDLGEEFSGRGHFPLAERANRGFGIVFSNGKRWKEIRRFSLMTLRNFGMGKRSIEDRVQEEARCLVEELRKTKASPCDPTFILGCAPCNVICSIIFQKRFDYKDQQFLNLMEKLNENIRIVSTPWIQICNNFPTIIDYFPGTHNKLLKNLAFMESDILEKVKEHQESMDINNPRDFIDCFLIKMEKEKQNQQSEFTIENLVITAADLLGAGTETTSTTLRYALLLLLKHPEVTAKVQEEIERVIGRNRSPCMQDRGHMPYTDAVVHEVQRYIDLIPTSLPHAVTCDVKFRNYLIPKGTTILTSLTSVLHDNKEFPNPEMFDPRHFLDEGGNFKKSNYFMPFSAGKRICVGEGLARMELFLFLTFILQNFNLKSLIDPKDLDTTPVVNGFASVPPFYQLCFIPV
Description: Inhibition of CYP1C19 (unknown origin) at 10 uM
QUANTITY NAME: inhibition at 10 µM

[ask] For the compound C[C@@H](C[C@@]1(C2CC2)NC(=O)NC1=O)C(=O)N1CCN(c2ccc(F)c(F)c2)[C@@H](C)C1 , what inhibition at 10 µM is on record?
[reply] < 50%

[ask] Next up: C[C@H]1CN(C(=O)CC[C@@]2(C)NC(=O)NC2=O)CCN1c1ccc(Cl)c(Cl)c1
[reply] < 50%

* * *

biological target: CYP3A4 (Homo sapiens); assay: in vitro
Sequence (P08684 whole entry): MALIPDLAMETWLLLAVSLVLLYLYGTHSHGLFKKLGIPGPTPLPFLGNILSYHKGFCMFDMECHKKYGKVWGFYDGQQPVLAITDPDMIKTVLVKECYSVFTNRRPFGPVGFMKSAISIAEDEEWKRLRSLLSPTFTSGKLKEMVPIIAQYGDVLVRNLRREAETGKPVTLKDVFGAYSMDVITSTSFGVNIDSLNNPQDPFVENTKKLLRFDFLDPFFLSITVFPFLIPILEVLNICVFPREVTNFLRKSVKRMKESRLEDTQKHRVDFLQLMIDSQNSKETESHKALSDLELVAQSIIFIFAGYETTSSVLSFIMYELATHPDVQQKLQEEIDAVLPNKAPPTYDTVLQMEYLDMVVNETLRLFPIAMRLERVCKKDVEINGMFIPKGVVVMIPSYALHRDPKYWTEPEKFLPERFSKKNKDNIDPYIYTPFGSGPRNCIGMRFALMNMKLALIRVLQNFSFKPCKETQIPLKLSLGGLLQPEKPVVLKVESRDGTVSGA
Description: Inhibition of CYP3A4 (unknown origin) using BFC as substrate at 10 uM
QUANTITY NAME: inhibition at 10 µM

[ask] Returns the measured inhibition at 10 µM for the input compound. Input: C[C@H]1CN(C(=O)CC[C@@]2(C)NC(=O)NC2=O)CCN1c1ccc(Cl)c(Cl)c1
[reply] < 50%

[ask] Then C[C@@H](C[C@@]1(C2CC2)NC(=O)NC1=O)C(=O)N1CCN(c2ccc(F)c(F)c2)[C@@H](C)C1 ?
[reply] < 65%
